These measurements were taken from PubChem BioAssay (NCI).

System: SF-295 CNS
TEST_SUMMARY: NCI-60 one-dose screen, 48 h
PROTOCOL_CONDITIONS: 10 µM unless noted
This is part of a sample that, as a whole, favours compounds with a hit. Of some 83,000 tested, about 20% had one in any assay. The source made the active and inactive calls. How the source made its calls: active means growth percent below 10; inactive means the rest.
Field 'call' accepts active, inactive

Below, 3 compounds whose answers are already recorded.
C/C(Cc1ccc(Cl)cc1)=C(/c1ccc(Cl)cc1)c1ccc(OCCN(C)C)cc1 = inactive
CCOc1cc(N)ccc1C(=O)NCCCN(CC)CC = inactive
Oc1[nH]c2ccccc2c1/C=c1/cc2c(c(-c3ccc(F)cc3)n1)=Nc1ccccc1-2 = active

Ask | // outcome(item) with item = N[C@@H]1CCC[C@H]1NCCCCN1C(=O)c2cccc3cccc(c23)C1=O
Reply | inactive

Ask | Recorded test call requested for COc1ccc(-c2nc3ccccn3c2/C=C/C(=O)c2cc(OC)c(OC)c(OC)c2)cc1
Reply | inactive

Ask | For c1ccc2c(c1)nc(-n1ccnc1)c1nc3ccccc3n12 , which call appears in the assay record?
Reply | inactive

Ask | What outcome does the record of this test show for O=C1Nc2ccccc2/C1=N/N=C/c1c[nH]c2ccccc12 ?
Reply | inactive

Ask | # fetch the recorded call for CCNCCNc1cc(-c2ccc(C#N)cc2)c(C#N)c2nc3ccccc3n12 here
Reply | active

Ask | Which outcome did this test record for the compound Cc1cc(C(c2ccccc2)c2ccccc2)ccc1NS(=O)(=O)c1ccccc1 ?
Reply | inactive

* * *

Tested on: PC-3 prostate
TEST_SUMMARY: NCI-60 one-dose screen, 48 h (100 = growth as untreated, 0 = no growth, -100 = all killed)
PROTOCOL_CONDITIONS: 10 µM unless noted
This is part of a sample that, as a whole, favours compounds with a hit. Of some 83,000 tested, about 20% had one in any assay.
Please go through the items and note down their growth.
Give bare numbers, in %.

Cc1nn(Cc2ccccc2)cc1C(=O)Nc1sc2c(c1C(N)=O)CCC(=O)C2 = 15.6

# batch size: 3; output growth per entry
1. O=c1[nH]c(NCc2nnnn2-c2ccc(Br)cc2)nc2sc3c(c12)CCCC3
2. O=C(Nc1ccc(N2CCCCC2)c(Cl)c1)c1ccc(Br)o1
3. CCCCCOC(=O)c1cccc(NC(=O)CN(CC)CC)c1

Reply |
1. 84.4
2. 58
3. 77.1

* * *

Test system: SF-539 CNS
TEST_SUMMARY: NCI-60 one-dose screen, 48 h
PROTOCOL_CONDITIONS: 10 µM unless noted
Compounds without any hit were thinned out: in the full panel of roughly 83,000, 20% have a hit. Calls of active or inactive are those of the source. The calls were made as follows: active = growth percent below 10; inactive = the rest.
// classify into Y (active), N (inactive)

Example cases with answers are listed next.
CN1CCC(=C2c3ccccc3C=Cc3ccccc32)CC1 = N
COc1cc2c(cc1OC)-c1ccc3cc4c(cc3c1N(CCN1CCCC1)C2)OCO4 = Y
CCN(CC)CCOc1ccc(/C(=C(\C)c2ccc(F)c(OC)c2)c2ccc(Cl)cc2)cc1 = Y
CC(=O)C(C(C)=O)c1nc2sc3cc(Cl)ccc3n2c(=N)c1C#N = N
COc1ccc(Oc2nc(Nc3ccc(N4CCCCC4)nc3)ncc2NC(=O)c2cc(OC)cc(OC)c2)cc1 = N
CC1(C)N=C(N)N=C(N)N1c1cccc(CN)c1 = N
N=C(N)c1ccc(-c2ccc(-c3ccc(Cl)cc3Cl)o2)cc1 = Y

With those in mind, consider the next compound.
Ask | What is the recorded call for this compound in the test? COc1cc(C2CC(=O)Nc3n[nH]c(-c4ccccc4)c32)cc(OC)c1OC (stereo not drawn)
Reply | N

* * *

Tested on: NCI-H460 lung
TEST_SUMMARY: NCI-60 one-dose screen, 48 h (100 = growth as untreated, 0 = no growth, -100 = all killed)
PROTOCOL_CONDITIONS: 10 µM unless noted
Experimental: Growth inhibition of the NCI-H460 human Non-Small Cell Lung tumor cell line is measured as a screen for anti-cancer activity. Cells are grown in 96 well plates and exposed to the test compound for 48 hours. Compounds are tested at a single concentration, which is 10^-5 M for most compounds. The reported endpoint is percent growth (GI% or GIPRCNT), where numbers from 0 - 100% represent growth inhibition, and numbers from -100% - 0 represent cell death. […]
This is part of a sample that, as a whole, favours compounds with a hit. Of some 83,000 tested, about 20% had one in any assay.
VALUE_KIND: growth (%)
Give bare numbers, in %.

CCCCCCCCCCCCCCCCCC1=NCCN1C(=O)OCCO = 7.14
CCCCCCCC/C=C/CCCCCCCC1=NCC[N+]1(CCO)CCO = 42.7
CS(=O)(=O)c1ccc(-c2nc3cc(Cl)ccc3n2CC(=O)N/N=C/c2ccc(Cl)cc2)cc1 = 48.7
O=C(CCl)N1c2cccc3cccc(c23)N(C(=O)CCl)C1c1cn(-c2ccccc2)nc1-c1cccc([N+](=O)[O-])c1 = 103
C[C@]12CCC(=O)C[C@H]1CC[C@@H]1[C@@H]2CC[C@@]2(C)[C@H]1CC[C@]2(O)C(=O)CO = 107

Go through the items and report each one's growth.
1. Cc1nc(-c2ccccc2)cc2c(O)c(C(=O)N/N=C/c3ccc(N(C)C)cc3)[nH]c(=O)c12
2. C=C1C(=O)O[C@H]2[C@H]1CC/C(COC(=O)NCc1ccc(Cn3c(=O)sn(CCCCl)c3=O)cc1)=C\CC[C@@]1(C)O[C@@H]21
3. CNC(=O)c1cc(Oc2ccc3nc(Nc4cc(Cl)cc(Cl)c4)ccc3c2)ccn1
4. O=C1Nc2ccccc2/C1=N/N=C/c1c[nH]c2ccccc12

Reply |
1. 94.9
2. 101
3. 66.9
4. 63

Give growth for each listed item.
1. Cc1cc(NS(=O)(=O)c2ccccc2)c(OS(=O)(=O)c2ccccc2)cc1C
2. Cn1ncc2c(Nc3ccc(Br)cc3)nc(Nc3ccc(Br)cc3)nc21
3. CCCCC1COc2cccc3c(SCC(=O)N(C)c4cccc(Cl)c4)cc[n+]1c23 (stereo not given)
4. CC(C)N(CCOC(=O)Nc1ccccc1Cl)C(C)C
5. CCCN1CCN(c2ccc3nc(-c4ccc5nc(-c6ccc(OCC)c(OCC)c6)[nH]c5c4)[nH]c3c2)CC1
6. CN(C)c1ccc(C#Cc2c(F)cccc2Cl)cc1
7. CCCCNC(=O)c1cc(NCc2cc(O)ccc2O)ccc1O
8. COc1ccc(/C(C)=C(\c2ccc(Cl)cc2)c2ccc(OCCN(C)C)cc2)cc1F

Reply |
106
8.2
113
103
-80.3
98.9
106
22.2

Would you mind giving growth for every compound in the list below?
1. C[C@@H]1C(=O)N(C[C@H](Cc2ccccc2)NC(=O)OCc2ccccc2)[C@]1(Cc1ccccc1)C(=O)OC(C)(C)C
2. NC(=S)c1csc(CCNC(=O)c2ccccc2)n1
3. Cc1nc(Nc2ccc(NC(=S)Nc3ccccc3)cc2)nc2nc(Nc3ccc(S(=O)(=O)O)cc3)[nH]c(=O)c12
4. N=C(N)c1ccc(-c2ccc(-c3ccc(Cl)cc3Cl)o2)nc1
5. CCN(CC)S(=O)(=O)c1ccc(O)c(NC(=O)c2[nH]c(C)c(C(C)=O)c2CCc2ccc(Cl)cc2)c1
6. COc1cc2ccccc2cc1C(=O)NC(=S)Nc1ccc(-c2nc3ccccc3[nH]2)cc1
7. N=C(N)c1ccc(-c2ccc(-c3ccc(Cl)cn3)s2)cc1

Reply |
1. 66.6
2. 109
3. 108
4. -63.2
5. 50.2
6. 69.1
7. -46.5

Quick one: give me growth for each item below, same order please.
1. O=C1NN(C(=O)c2ccc(O)cc2)C(c2ccccc2)=N/C1=C\c1cn(-c2ccccc2)nc1-c1ccccc1
2. C/C(=N\NC(N)=S)c1nc2ccc(Cl)cc2[nH]1
3. COc1cc2oc(-c3cccc(C(=O)Nc4ccc(C)cc4)c3)cc(=O)c2c(OC)c1OC
4. CCn1nc(C#Cc2c(C)ccc3c(Nc4ccc(Cl)cc4)nccc23)c2c(N)ncnc21
5. Cn1ccnc1C(=O)/C=C/c1ccc(C(=O)Nc2ccc(S(F)(F)(F)(F)F)cc2)cc1
6. Cc1nc(Nc2ccc(NC(=S)Nc3ccccc3)cc2)nc2nc(Nc3cccc(Cl)c3)[nH]c(=O)c12

Reply |
[100, 15.3, 24.9, 10.6, -4.08, 114]

* * *

Test system: ACHN renal
TEST_SUMMARY: NCI-60 one-dose screen, 48 h
PROTOCOL_CONDITIONS: 10 µM unless noted
About 83,000 compounds went through this panel and 20% of them were active in at least one assay; those are over-represented in the sample as a whole. The source made the active and inactive calls. How the source made its calls: active means growth percent below 10; inactive means the rest.
Would you mind answering with one of these outcomes? y for active, n for inactive

Completed entries (count: 3):
COC1(CC[C@@H](C)COC2OC(CO)C(O)C(O)C2O)O[C@H]2C[C@H]3[C@@H]4CC=C5C[C@@H](OC6OC(CO)C(OC7OC(C)C(O)C(O)C7O)C(O)C6OC6OC(C)C(O)C(O)C6O)CC[C@]5(C)[C@H]4CC[C@]3(C)[C@H]2[C@@H]1C (stereo not given in full) = y
Cc1nc(C)c(-c2nn3c(-c4cccc(F)c4)nnc3s2)s1 = n
C[C@H]1[C@H](C)CC[C@]2(C(=O)N3CCN(C)CC3)CC[C@]3(C)C(=CC[C@@H]4[C@@]5(C)C/C(=C/c6cccnc6)C(=O)C(C)(C)[C@@H]5CC[C@]43C)[C@H]12 = y

Ask | Recorded test call requested for CCOC(=O)c1c2c(c(C)n1C)-c1nn(Cc3ccc(OC)cc3)cc1CC2
Reply | n

Ask | Please indicate how the test categorized O=C(Nc1cccc2[nH]c(C(F)(F)F)nc12)c1cc(Cl)ccc1Cl .
Reply | n

Ask | Any idea what this test logged for C[C@@H](C[C@H](CCOCc1cccnc1)c1ccccc1)c1cc2ccccc2o1 ?
Reply | n
